Attribution: paper PMC4153296

target: TaqAH (Thermus aquaticus, UniProt P19821 1-832, E742A;A743H); assay: EMSA; 5 mM Mg2+; apparent Kd; EMSA: 3 nM DNA, 20 mM Tris-HCl pH 8.8, 10 mM NaCl, 5 mM MgCl2, 14 mM 2-mercaptoethanol, 0.1 mg/ml BSA, 5% glycerol, 40 C, 5 min; 1% agarose gel; conditions: protein: recombinant; label: 32P on 27mer; primer-template; 27 bp duplex, 5' overhang 22 nt on the 49mer template
Sequence (P19821 whole entry E742A/A743H): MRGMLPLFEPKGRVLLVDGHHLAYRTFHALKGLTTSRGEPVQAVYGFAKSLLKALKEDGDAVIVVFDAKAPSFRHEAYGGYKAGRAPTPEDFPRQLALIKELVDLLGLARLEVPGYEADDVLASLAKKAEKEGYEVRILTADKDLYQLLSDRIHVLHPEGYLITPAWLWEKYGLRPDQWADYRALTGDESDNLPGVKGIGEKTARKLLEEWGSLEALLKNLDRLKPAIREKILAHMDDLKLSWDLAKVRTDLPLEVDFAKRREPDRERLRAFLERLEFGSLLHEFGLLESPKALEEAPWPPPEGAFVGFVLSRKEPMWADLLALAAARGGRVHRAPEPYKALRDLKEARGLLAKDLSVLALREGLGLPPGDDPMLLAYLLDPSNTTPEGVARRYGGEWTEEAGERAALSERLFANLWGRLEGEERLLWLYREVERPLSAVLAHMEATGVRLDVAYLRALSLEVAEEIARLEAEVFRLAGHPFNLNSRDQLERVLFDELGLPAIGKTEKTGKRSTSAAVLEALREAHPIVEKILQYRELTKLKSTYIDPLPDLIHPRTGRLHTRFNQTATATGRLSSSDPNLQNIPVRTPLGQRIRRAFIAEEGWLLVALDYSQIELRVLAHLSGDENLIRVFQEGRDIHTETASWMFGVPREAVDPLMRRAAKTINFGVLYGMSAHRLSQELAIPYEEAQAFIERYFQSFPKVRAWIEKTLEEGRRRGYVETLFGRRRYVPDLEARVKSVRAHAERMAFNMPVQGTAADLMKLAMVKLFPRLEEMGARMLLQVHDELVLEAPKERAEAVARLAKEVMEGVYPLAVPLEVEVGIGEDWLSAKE
READOUT TYPE: Kd (nM)
Dear colleague, please return just the value in nM, with no unit written.

-- ask Dear colleague, I am looking for the recorded Kd of the following binder: primed DNA (27mer/49mer) (dsDNA) DNA 1: AGCTATGACCATGATTACGAATTGCTT DNA 2: AGCTACCATGCCTGCACGAATTAAGCAATTCGTAATCATGGTCATAGCT
-- reply 6
